Target: Replicase polyprotein 1ab (Severe acute respiratory syndrome coronavirus 2, UniProt P0DTD1)
Attribute measured: pIC50
FYI, pIC50 means -log10 of a concentration in mol per litre.

NC(=O)CN1C(=O)C(O)(CC(=O)/C=C\c2ccc3c(c2)OCO3)c2ccccc21 (stereo not drawn)	4.44
O=C(CC1C(=O)NCCN1C(=O)CCl)Nc1cccc(Cl)c1 (stereo not drawn)	5.07

-- ask Could you tell me which pIC50 is on file for `CC1=C(C#N)C(=O)N(CCCO)C(=O)/C1=N\Nc1ccc(Br)cc1C(=O)O` ?
-- reply 4.72
